Reference source: patent EP4786464A1

# procedure.details: Metabolic stability in liver microsomes (mouse)
# Format: in vitro ADME
# run.conditions: pH 7.4; mouse liver microsomes 0.5 mg/mL, 1 µM compound, 1 mM NADPH; read-out: Half-life (t1/2, min) (mouse)

{"compound": "O=C1C[C@H](C23CC(N4CCOCC4)(C2)C3)N1c1ccc2[nH]cnc2c1 [Compound 7]", "half-life at 1 µM": "325 min"}

----------
# assay.system: human QPCT (Homo sapiens, UniProt Q16769)
# Construct: purchased Anaspec AS-72230
# Sequence (Q16769 29-361): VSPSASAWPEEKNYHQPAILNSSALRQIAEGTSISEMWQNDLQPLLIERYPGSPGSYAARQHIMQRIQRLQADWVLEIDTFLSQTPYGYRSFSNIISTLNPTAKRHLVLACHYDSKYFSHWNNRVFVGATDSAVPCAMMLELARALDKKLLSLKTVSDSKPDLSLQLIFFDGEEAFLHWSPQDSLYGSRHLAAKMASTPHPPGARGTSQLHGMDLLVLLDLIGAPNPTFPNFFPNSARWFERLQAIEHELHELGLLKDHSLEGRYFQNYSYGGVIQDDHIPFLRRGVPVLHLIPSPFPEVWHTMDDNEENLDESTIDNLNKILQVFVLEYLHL
# procedure.details: Inhibition of human QPCT enzyme activity (SensoLyte Green Glutaminyl Cyclase Activity Assay Kit)
# Type: biochemical
# run.conditions: fluorescence Ex/Em = 490 nm/520 nm
quantity: IC50 (nM)

{"structure.smiles": "O=C1C[C@H](C23CC(c4ccc(F)cc4)(C2)C3)N1c1ccc2[nH]cnc2c1", "quantity": "IC50", "endpoint.result": 10.7}
{"structure.smiles": "COC12CC([C@H]3CC(=O)N3c3ccc4[nH]cnc4c3)(C1)C2", "quantity": "IC50", "endpoint.result": 166}
{"structure.smiles": "O=C1C[C@H](C23CC(N4CCOCC4)(C2)C3)N1c1ccc2[nH]cnc2c1", "quantity": "IC50", "endpoint.result": 36.8}
{"structure.smiles": "N#Cc1ccc(C23CC([C@H]4CC(=O)N4c4ccc5[nH]cnc5c4)(C2)C3)cc1", "quantity": "IC50", "endpoint.result": 19.1}
{"structure.smiles": "CCCOC12CC([C@H]3CC(=O)N3c3ccc4[nH]cnc4c3)(C1)C2", "quantity": "IC50", "endpoint.result": 52.4}
{"structure.smiles": "O=C1C[C@H](C23CC(CF)(C2)C3)N1c1ccc2nc[nH]c2c1", "quantity": "IC50", "endpoint.result": 58.9}
{"structure.smiles": "CC12CC([C@H]3CC(=O)N3c3ccc4nc[nH]c4c3)(C1)C2", "quantity": "IC50", "endpoint.result": 37.3}
{"structure.smiles": "[2H][C@]1(C23CC(C2)C3)CC(=O)N1c1ccc2[nH]cnc2c1", "quantity": "IC50", "endpoint.result": 42.5}
{"structure.smiles": "O=C1C[C@H](C23CC(c4ccncc4)(C2)C3)N1c1ccc2[nH]cnc2c1", "quantity": "IC50", "endpoint.result": 8.5}
{"structure.smiles": "O=C1C[C@H](C23CC(F)(C2)C3)N1c1ccc2[nH]cnc2c1", "quantity": "IC50", "endpoint.result": 170}
{"structure.smiles": "O=C1C[C@H](C23CC(Cl)(C2)C3)N1c1ccc2[nH]cnc2c1", "quantity": "IC50", "endpoint.result": 73.2}
